Below is a list of entries, each paired with its recorded pIC50 value.
Molecular target: BACE1 (Homo sapiens)
Assay: In vitro enzymatic BACE FRET (fluorescence resonance energy transfer) assay
Assay type: biochemical
Description: In Vitro Enzymatic BACE FRET (Fluorescence Resonance Energy Transfer) Assay (Enzyme Assay Data in Table 1) The assay buffer used in this screen is 0.05 M acetate, pH 4.2, 10% DMSO final, 100 uM genapol (which is a nonionic detergent, below its Critical Micelle Concentration). […] The FRET assay is terminated with by addition of Tris buffer, which raises the pH to neutrality, and the fluorescence is determined. […]
pIC50: −log10 of the molar value.
parameter-measured: pIC50

C=CC[C@H](NC(=O)c1ccc(F)c(F)c1)[C@H](O)CN[C@H]1CC2(CCC2)Oc2ncc(CC(C)(C)C)cc21 [Example 60]: 7.06
C=CCC(NC(=O)C1CN(C(C)=O)CCO1)C(O)CNC1CC2(CCC2)Oc2ncc(CC(C)(C)C)cc21 (stereo not shown) [Example 155]: 7.31
C=CC[C@H](NC(=O)COC)[C@H](O)CN[C@H]1CC2(CCC2)Oc2c1cc(CC(C)(C)C)nc2NC [Example 47]: 6.79
C=CCC(NC(=O)CF)C(O)CNC1CC2(CC(O)C2)Oc2ncc(CC(C)(C)C)cc21 (stereo not shown) [Example 111]: 7.70

====

system: Cells stably expressing Amyloid Precursor Protein (APP); test: In vitro BACE cell-based assay (HEK cell assay): Aβ40 in conditioned medium by sandwich ELISA; settings: Homo sapiens, HEK293, 24 h, Aβ40 in conditioned medium after 24 h incubation
parameter-measured: log10(IC50) (log10 of the value in nM)

C=CC[C@H](NC(=O)COC)[C@H](O)CN[C@H]1CC2(CCC2)Oc2nc(F)c(CC(C)C)cc21 [Example 126]: 2.32
C=CC[C@H](NC(=O)c1c(F)cccc1F)[C@H](O)CN[C@H]1CC2(CCC2)Oc2ncc(CC(C)(C)C)cc21 [Example 72]: 3.55
C=CC[C@H](NC(=O)COC)[C@H](O)CN[C@H]1CC2(CCC2)Oc2ncc([C@H](F)C(C)(C)C)cc21 [Example 82]: 2.33
C=CC[C@H](NC(=O)c1cncnc1)[C@H](O)CN[C@H]1CC2(CCC2)Oc2ncc(CC(C)(C)C)cc21 [Example 68]: 2.85
C=CC[C@H](NC(=O)c1c(F)cc(F)cc1F)[C@H](O)CN[C@H]1CC2(CCC2)Oc2ncc(CC(C)(C)C)cc21 [Example 78]: 3.48
C=CC[C@H](NC(C)=O)[C@H](O)CN[C@H]1CC2(CCC2)Oc2ncc(CC(C)C)cc21 [Example 38]: 1.93
C=CC[C@H](NC(=O)C(F)(F)F)[C@H](O)CN[C@H]1CC2(CCC2)Oc2ncc(CC(C)(C)C)cc21 [Example 94]: 2.19
C=CC[C@H](NC(=O)[C@H](F)C(F)(F)F)[C@H](O)CN[C@H]1CC2(CCC2)Oc2ncc(CC(C)(C)C)cc21 [Example 138]: 2.29
C=CC[C@H](NC(=O)c1ccc2c(c1)OCO2)[C@H](O)CN[C@H]1CC2(CCC2)Oc2ncc(CC(C)(C)C)cc21 [Example 102]: 2.85
C=CC[C@H](NC(=O)OCc1cncs1)[C@H](O)CN[C@H]1CC2(CCC2)Oc2ncc(CC(C)(C)C)cc21 [Example 105]: 3.06
C=CC[C@H](NC(=O)c1ccc(F)nc1)[C@H](O)CN[C@H]1CC2(CCC2)Oc2ncc(CC(C)(C)C)cc21 [Example 66]: 1.85
C=CC[C@H](NC(=O)COC)[C@H](O)CN[C@H]1CC2(CCC2)Oc2ccc(CC(C)C)cc21 [Example 35]: 2.80

====

tested on: Cells stably expressing Amyloid Precursor Protein (APP); experiment: In vitro BACE cell-based assay (HEK cell assay): Aβ40 in conditioned medium by sandwich ELISA; settings: Homo sapiens, HEK293, 24 h, Aβ40 in conditioned medium after 24 h incubation
parameter-measured: IC50 (nM)

CCC[C@H](NC(C)=O)[C@H](O)CN[C@H]1CC2(CCC2)Oc2ncc(CC(C)(C)C)cc21: 167
C=CC[C@H](NC(C)=O)[C@H](O)CN[C@H]1CC2(CCC2)Oc2c1cc(CC(C)(C)C)nc2NC: 20
C=CC[C@H](NC(=O)COC)[C@H](O)CN[C@H]1CC2(CCC2)Oc2ncc(CC(C)(C)CF)cc21: 249

====

target: BACE1 (Homo sapiens); test: In vitro enzymatic BACE FRET (fluorescence resonance energy transfer) assay; format: biochemical
pIC50: −log10 of the molar value.
parameter-measured: pIC50

CC#CC[C@H](NC(C)=O)[C@H](O)CN[C@H]1CC2(CCC2)Oc2ncc(CC(C)(C)C)cc21 [Example 86]: 7.16
C=CCC(NC(=O)C1CCC(=O)O1)C(O)CNC1CC2(CC(O)C2)Oc2ncc(CC(C)(C)C)cc21 (centres unmarked) [Example 112]: 8.70
C=CC[C@H](NC(=O)[C@@H](F)C(F)(F)F)[C@H](O)CN[C@H]1CC2(CCC2)Oc2ncc(CC(C)(C)C)cc21 [Example 137]: 7.10
C=CC[C@H](NC(=O)COC)[C@H](O)CN[C@H]1CC2(CCC2)Oc2ncc([C@H](F)C(C)(C)C)cc21 [Example 82]: 7.16
C=CC[C@H](NC(=O)c1cocn1)[C@H](O)CN[C@H]1CC2(CCC2)Oc2ncc(CC(C)(C)C)cc21 [Example 129]: 6.65
CC(=O)N[C@@H](CC=C1CCC1)[C@H](O)CN[C@H]1CC2(CCC2)Oc2ncc(CC(C)(C)C)cc21 [Example 83]: 7.96
C=CC[C@H](NC(=O)C1(OC)CC1)[C@H](O)CN[C@H]1CC2(CCC2)Oc2ncc(CC(C)(C)C)cc21 [Example 151]: 6.34
C=CCC(NC(C)=O)C(O)CNC1CC2(CC(O)C2)Oc2ccc(Br)cc21 (centres unmarked) [Example 117]: 6.38
C=CC[C@H](NC(C)=O)[C@H](O)CN[C@H]1CC2(CCC2)Oc2c1cc(CC(C)(C)C)nc2N1CCCC1 [Example 46]: 6.43
CC=CC[C@H](NC(C)=O)[C@H](O)CN[C@H]1CC2(CC(F)C2)Oc2ncc(CC(C)(C)C)cc21 (some centres unmarked) [Example 109]: 7.43
C=CCC(NC(C)=O)C(O)CNC1CC2(CC(O)C2)Oc2ccc(CC(C)(C)C)cc21 (centres unmarked) [Example 115]: 6.47
C=CC[C@H](NC(=O)c1cccnc1OC)[C@H](O)CN[C@H]1CC2(CCC2)Oc2ncc(CC(C)(C)C)cc21 [Example 65]: 6.32
C=CCC(NC(C)=O)C(O)CNC1CC2(CC(C#N)C2)Oc2ncc(CC(C)(C)C)cc21 (centres unmarked) [Example 114]: 6.42
C=CC[C@H](NC(=O)c1cc(F)c(F)cc1F)[C@H](O)CN[C@H]1CC2(CCC2)Oc2ncc(CC(C)(C)C)cc21 [Example 77]: 6.36

====

Below, each entry is listed alongside its reported IC50 at 10 min.
molecular target: CYP3A4 (CYP3A) (Homo sapiens, UniProt P08684); assay: CYP3A inhibition assay (midazolam, pooled human liver microsomes); assay type: in vitro ADME; conditions: human, pooled human liver microsomes, pH 7.4, probe midazolam (printed as about […]); read-out: 3A4 IC50
Sequence (P08684 2-503): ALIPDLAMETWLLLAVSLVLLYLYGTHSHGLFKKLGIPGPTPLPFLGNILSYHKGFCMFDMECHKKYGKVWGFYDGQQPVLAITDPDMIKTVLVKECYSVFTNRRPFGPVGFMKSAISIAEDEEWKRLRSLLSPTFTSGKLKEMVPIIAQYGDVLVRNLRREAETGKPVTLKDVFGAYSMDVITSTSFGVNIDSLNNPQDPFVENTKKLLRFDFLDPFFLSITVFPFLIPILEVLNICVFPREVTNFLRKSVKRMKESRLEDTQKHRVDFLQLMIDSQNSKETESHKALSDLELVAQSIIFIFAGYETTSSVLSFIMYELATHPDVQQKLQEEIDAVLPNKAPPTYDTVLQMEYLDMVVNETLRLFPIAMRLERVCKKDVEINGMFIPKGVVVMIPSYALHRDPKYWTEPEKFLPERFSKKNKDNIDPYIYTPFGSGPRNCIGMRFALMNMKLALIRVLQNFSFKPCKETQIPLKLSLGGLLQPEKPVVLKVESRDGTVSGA
parameter-measured: IC50 at 10 min (nM)

CC[C@H](NC(C)=O)[C@H](O)CN[C@H]1CC2(CCC2)Oc2ncc(CC(C)(C)C)cc21: 27000
C=CC[C@H](NC(=O)COC)[C@H](O)CN[C@H]1CC2(CCC2)Oc2c1cc(CC(C)(C)C)cc2-n1ccnc1: 200
C=CC[C@H](NC(=O)COC)[C@H](O)CN[C@H]1CC2(CCC2)Oc2c1cc(CC(C)(C)C)nc2Nc1nccs1: 1200

====

target: BACE1 (Homo sapiens, UniProt P56817); experiment: In vitro enzymatic BACE FRET (fluorescence resonance energy transfer) assay; assay type: biochemical; conditions: read-out: BACE 1 FRET assay
Sequence (P56817 46-501, species assumed): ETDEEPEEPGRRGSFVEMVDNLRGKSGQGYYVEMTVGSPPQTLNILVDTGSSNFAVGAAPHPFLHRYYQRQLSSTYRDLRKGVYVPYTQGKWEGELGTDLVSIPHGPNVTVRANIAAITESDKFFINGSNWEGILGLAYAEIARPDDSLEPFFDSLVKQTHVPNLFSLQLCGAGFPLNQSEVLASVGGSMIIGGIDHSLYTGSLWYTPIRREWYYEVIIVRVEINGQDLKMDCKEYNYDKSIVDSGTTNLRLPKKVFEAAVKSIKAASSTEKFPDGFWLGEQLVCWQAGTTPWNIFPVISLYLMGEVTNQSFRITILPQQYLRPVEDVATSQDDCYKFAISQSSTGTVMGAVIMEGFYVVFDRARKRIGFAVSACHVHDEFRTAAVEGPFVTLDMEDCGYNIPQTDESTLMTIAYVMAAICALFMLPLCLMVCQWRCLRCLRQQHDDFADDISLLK
pIC50: −log10 of the molar value.
parameter-measured: pIC50

C=CC[C@H](NC(=O)COC)[C@H](O)CN[C@H]1CC2(CCC2)Oc2c1cc(CC(C)(C)C)nc2Nc1cccnc1: 6.57
C=CC[C@H](NC(=O)COC)[C@H](O)CN[C@H]1CC2(CCC2)Oc2c(Br)cc(CC(C)(C)C)cc21: 7.36
C=CC[C@H](NC(=O)[C@@H](C)OC)[C@H](O)CN[C@H]1CC2(CCC2)Oc2c1cc(CC(C)C)cc2-n1ccnc1: 6.32
C=CC[C@H](NC(=O)COC)[C@H](O)CN[C@H]1CC2(CCC2)Oc2c1cc(CC(C)(C)C)nc2Nc1ccccc1: 7.40
C=CC[C@H](NC(=O)COC)[C@H](O)CN[C@H]1CC2(CCC2)Oc2c(-c3cccnc3)cc(CC(C)(C)C)cc21: 6.97
CCC[C@H](NC(=O)[C@@H](C)OC)[C@H](O)CN[C@H]1CC2(CCC2)Oc2c1cc(CC(C)(C)C)nc2NC: 6.04
C=CC[C@H](NC(=O)COCC)[C@H](O)CN[C@H]1CC2(CCC2)Oc2ncc(CC(C)(C)C)cc21: 5.61
CC[C@H](NC(C)=O)[C@H](O)CN[C@H]1CC2(CCC2)Oc2ncc(CC(C)(C)C)cc21: 7.22

// provenance: patent US8633315B2
